Biological target: Short transient receptor potential channel 4 (Mus musculus) (UniProt Q9QUQ5)
Assay: calcium flux activators in TRPC4/5HT1a cells, counter-screen for TRPC4 activator project, cell-based, second counter screen, HEK293 TRPC4/5HT1a, Fluo-4 (AID 434977)
Conditions: Fluo-4 calcium flux, at 10 µM
Active and inactive are the calls of the source.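 The calls were made as follows: active = calcium signal rise above buffer-control mean plus 5 SD in both duplicates, and also a hit in the primary screen; inactive = the rest.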
Respond using exactly one of the listed classes: 1.0 for active, 0.0 for inactive

Previously resolved entries follow.
compound	assigned.class
c1ccc(Cn2nnnc2C(c2cccnc2)N2CCN(C3CCCCC3)CC2)cc1 (stereo unspecified)	1.0
O=C(C1=C[C@H](c2ccc(C(F)(F)F)cc2)C[C@H](OCCCCO)O1)N1CCOCC1	0.0
COc1ccc2c(c1)c1ncn(CCN3CCCC3)c(=O)c1n2C	0.0
CCCCn1c(NC(=O)c2ccccc2)nc2ccccc21	0.0

Task: Could you kindly confirm the outcome this assay logged for COc1ccc(F)cc1CN1CCN(C(=O)CCC(=O)Nc2nnc(C(C)C)s2)CC1 ?
Result: 0.0

Task: I'd appreciate the recorded outcome for CCOC(=O)C1(Cc2cccc(F)c2)CCN(Cc2cnn(CC)c2C)CC1 from this test.
Result: 0.0

---

System: TRPC4 (transient receptor potential cation channel C4 beta), mouse
Test: potentiation of DAMGO EC20 TRPC4 response – cell-based, second round, Fluo-4, HEK293 TRPC4beta/mu-opioid, 1 µM, confirmation (AID 2554)
Conditions: DAMGO EC20, Fluo-4 calcium flux, at 1 µM
The source made the active and inactive calls.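 The calls were made as follows: active = primary screen hit whose fluorescence ratio, in both repeats, exceeds the weak agonist control mean by 3 SD; inactive = the rest.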
Your response should consist of one outcome taken from T for active, F for inactive

For orientation, consider the following solved cases.
compound	assigned.class
Cc1ccc(Nc2cc(C)nc3c(C)cccc23)cc1	F
Cc1onc(-c2c(F)cccc2Cl)c1C(=O)N(C)CC(=O)Nc1cccc(F)c1	F
CC(=O)C1=C(O)C(=O)N(Cc2ccco2)C1c1ccc2c(c1)OCO2 (stereo not drawn)	F
O=C(O)c1ccc(N/N=C/c2ccc(-c3cccc(Cl)c3)o2)cc1	F
CC(=O)c1c(C)nn(CC(=O)NC2CCCN(Cc3ccc(CC(C)C)cc3)C2)c1C (stereo not drawn)	F

Task: Please state the recorded outcome for this compound: CCn1c(N2CCN(C(=S)NCC(C)C)CC2)nc2ccccc21
Result: F

Task: For COc1cc(OC)cc(C(=O)NC(=S)NNC(=O)Cc2cccs2)c1 , what call appears in the results of this test?
Result: F

Task: What did this assay record as the result for Cc1cccc(OCCC(=O)NCC(c2ccccc2)N(C)C)c1 (stereo not drawn) ?
Result: F

Task: What outcome does the record of this test show for CCCn1c(=O)c2sccc2n2c(CCCC(=O)NC3CCN(Cc4ccccc4)CC3)nnc12 ?
Result: F

Task: Please share the test call associated with O=C(c1ccccc1F)N1CCN(c2ccc([N+](=O)[O-])c3cccnc23)CC1 .
Result: F

Task: What did this assay record as the result for CC[C@@H](C)[C@H](CNC)NC[C@@H](Cc1cccc2ccccc12)NCCc1cccc(C(F)(F)F)c1 ?
Result: F

Task: Per the records of this test, what outcome belongs to N#Cc1c(NC(=O)C2CC(Cl)=CCC2C(=O)O)sc2c1CCCCC2 (stereo not drawn) ?
Result: F

Task: Fill in: this test's call for Cc1cc(OCCN2CCCCC2)nc2ccccc12 is ___
Result: F

Task: Hello, I am checking results. What call was entered for CN(C)CCCNc1c2ccccc2nc2ccccc12 ?
Result: F

Task: What classification did Cc1cc(Br)cc(C)c1OCCCCN(C)C end up with in this test?
Result: T

Task: Record lookup: outcome of this test for Cc1nc2ccccc2n1Cc1ccc(Br)cc1 ?
Result: F

Task: Write down the call the test reported for this compound. Item: O=C(COC(=O)Cn1cnc2ccccc2c1=O)Nc1ccccc1Sc1ccc(Cl)cc1
Result: F

Task: Given Cc1ccccc1Cn1c(CN2CCc3ccccc3C2)nc2c1c(=O)n(C)c(=O)n2C , state the outcome it received in this test.
Result: T

Task: Dear colleague, could you share the recorded outcome for COc1ccc(C2CC2/C(=N/O)c2ccccc2)cc1 (stereo not drawn) when you have a moment?
Result: F

Task: Fill in: this test's call for Cc1ccc2oc(C(=O)N3CCC(O)(c4ccccc4)CC3)c(C)c2c1 is ___
Result: F

Task: For Cc1cc(Oc2ccc(C(C)(C)C)cc2)nc(N2CCOCC2)n1 , what call appears in the results of this test?
Result: F

Task: Outcome? CCOC(=O)C1=C(N)OC2=C(C(=O)CC(C)(C)C2)C1c1ccc(CC)s1 (stereo not drawn)
Result: F

Task: Please let me know the test result on file for O=S(=O)(NCC1NCCc2ccccc21)c1ccccc1 (stereo not drawn) .
Result: F
